Measured values drawn from patent US20170081400A1 for this set.

Molecular target: T1, human TL1A extracellular domain with N-terminal HIS and FLAG tag (human, UniProt O95150 72-251)
T1 construct: whole entry named. ~70 kDa fraction purified by gel filtration
T1 sequence: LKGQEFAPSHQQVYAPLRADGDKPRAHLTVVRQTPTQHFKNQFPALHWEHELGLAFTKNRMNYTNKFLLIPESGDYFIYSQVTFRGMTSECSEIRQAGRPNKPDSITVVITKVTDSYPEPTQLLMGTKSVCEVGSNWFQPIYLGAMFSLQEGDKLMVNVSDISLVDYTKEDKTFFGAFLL
Experiment: SPR run 2; supernatant on Protein A; TL1A 10 ug/mL; timepoint 220
Property: TL1A Binding Level (Late) (RU)
Write the value in RU as a bare number.

Binder	TL1A Binding Level (Late) (RU)
320-226 (antibody, human IgG1, name in Kabat numbering, V domains shown, human IgG1, lambda) VH: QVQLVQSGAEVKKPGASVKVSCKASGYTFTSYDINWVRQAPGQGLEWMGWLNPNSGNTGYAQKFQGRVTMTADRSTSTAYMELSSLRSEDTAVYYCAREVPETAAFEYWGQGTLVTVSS VL: QSVLTQPPSVSGAPGQRVTISCTSSSQDIGAGLGVHWYQQLPGTAPKLLIEGYYNRPSGVPDRFSGSKSGTSASLTITGLLPEDEGDYYCQSYDGTLSALFGGGTKLTVLG	228
320-196 (antibody, human IgG1, name in Kabat numbering, V domains shown, human IgG1, lambda) VH: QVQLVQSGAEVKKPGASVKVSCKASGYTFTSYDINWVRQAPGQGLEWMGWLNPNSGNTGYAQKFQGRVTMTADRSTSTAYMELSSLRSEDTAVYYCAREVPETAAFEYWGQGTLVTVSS VL: QSVLTQPPSVSGAPGQRVTISCHSSSSDIGAGLGVHWYQQLPGTAPKLLIEGYYNRPSGVPDRFSGSKSGTSASLTITGLLPEDEGDYYCQSYDGTLSALFGGGTKLTVLG	228
320-237 (antibody, human IgG1, name in Kabat numbering, V domains shown, human IgG1, lambda) VH: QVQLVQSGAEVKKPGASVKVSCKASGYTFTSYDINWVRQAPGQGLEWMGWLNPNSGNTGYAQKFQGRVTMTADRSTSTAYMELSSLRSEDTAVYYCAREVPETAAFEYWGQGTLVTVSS VL: QSVLTQPPSVSGAPGQRVTISCTSSSSKIGAGLGVHWYQQLPGTAPKLLIEGYYNRPSGVPDRFSGSKSGTSASLTITGLLPEDEGDYYCQSYDGTLSALFGGGTKLTVLG	221
320-209 (antibody, human IgG1, name in Kabat numbering, V domains shown, human IgG1, lambda) VH: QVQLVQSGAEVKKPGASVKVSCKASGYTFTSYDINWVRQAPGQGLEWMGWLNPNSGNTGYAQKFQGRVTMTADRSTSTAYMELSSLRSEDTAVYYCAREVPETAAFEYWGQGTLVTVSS VL: QSVLTQPPSVSGAPGQRVTISCTSASSDIGAGLGVHWYQQLPGTAPKLLIEGYYNRPSGVPDRFSGSKSGTSASLTITGLLPEDEGDYYCQSYDGTLSALFGGGTKLTVLG	200
320-234 (antibody, human IgG1, name in Kabat numbering, V domains shown, human IgG1, lambda) VH: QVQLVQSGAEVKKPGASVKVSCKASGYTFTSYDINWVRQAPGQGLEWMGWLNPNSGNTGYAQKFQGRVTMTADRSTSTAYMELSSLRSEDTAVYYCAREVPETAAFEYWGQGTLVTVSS VL: QSVLTQPPSVSGAPGQRVTISCTSSSSSIGAGLGVHWYQQLPGTAPKLLIEGYYNRPSGVPDRFSGSKSGTSASLTITGLLPEDEGDYYCQSYDGTLSALFGGGTKLTVLG	239

Memo: 320-248 (antibody, human IgG1, name in Kabat numbering, V domains shown, human IgG1, lambda) VH: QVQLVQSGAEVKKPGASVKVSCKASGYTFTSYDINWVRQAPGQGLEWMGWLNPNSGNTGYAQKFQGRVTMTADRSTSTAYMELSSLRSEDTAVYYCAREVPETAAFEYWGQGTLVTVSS VL: QSVLTQPPSVSGAPGQRVTISCTSSSSDWGAGLGVHWYQQLPGTAPKLLIEGYYNRPSGVPDRFSGSKSGTSASLTITGLLPEDEGDYYCQSYDGTLSALFGGGTKLTVLG , reported TL1A Binding Level (Late): 30

Recorded result, 320-250 (antibody, human IgG1, name in Kabat numbering, V domains shown, human IgG1, lambda) VH: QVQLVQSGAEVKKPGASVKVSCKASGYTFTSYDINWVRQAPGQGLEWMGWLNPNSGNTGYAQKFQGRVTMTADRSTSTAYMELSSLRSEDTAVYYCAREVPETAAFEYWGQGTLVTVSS VL: QSVLTQPPSVSGAPGQRVTISCTSSSSDIAAGLGVHWYQQLPGTAPKLLIEGYYNRPSGVPDRFSGSKSGTSASLTITGLLPEDEGDYYCQSYDGTLSALFGGGTKLTVLG , TL1A Binding Level (Late): 115

Data point: 320-243 (antibody, human IgG1, name in Kabat numbering, V domains shown, human IgG1, lambda) VH: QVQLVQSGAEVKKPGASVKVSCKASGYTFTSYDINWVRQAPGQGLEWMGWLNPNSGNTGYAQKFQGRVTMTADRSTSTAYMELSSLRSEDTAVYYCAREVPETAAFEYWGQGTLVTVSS VL: QSVLTQPPSVSGAPGQRVTISCTSSSSDQGAGLGVHWYQQLPGTAPKLLIEGYYNRPSGVPDRFSGSKSGTSASLTITGLLPEDEGDYYCQSYDGTLSALFGGGTKLTVLG ; TL1A Binding Level (Late) = 26

Noted for 320-206 (antibody, human IgG1, name in Kabat numbering, V domains shown, human IgG1, lambda) VH: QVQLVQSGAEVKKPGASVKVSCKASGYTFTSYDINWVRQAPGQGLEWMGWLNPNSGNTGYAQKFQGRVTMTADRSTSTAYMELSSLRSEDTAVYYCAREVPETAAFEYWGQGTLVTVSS VL: QSVLTQPPSVSGAPGQRVTISCTLSSSDIGAGLGVHWYQQLPGTAPKLLIEGYYNRPSGVPDRFSGSKSGTSASLTITGLLPEDEGDYYCQSYDGTLSALFGGGTKLTVLG : its TL1A Binding Level (Late) reads 235

Recorded TL1A Binding Level (Late) (binder 320-195 (antibody, human IgG1, name in Kabat numbering, V domains shown, human IgG1, lambda) VH: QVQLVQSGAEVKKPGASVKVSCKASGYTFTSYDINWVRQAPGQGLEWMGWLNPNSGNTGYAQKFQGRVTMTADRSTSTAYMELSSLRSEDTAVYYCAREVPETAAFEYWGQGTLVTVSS VL: QSVLTQPPSVSGAPGQRVTISCDSSSSDIGAGLGVHWYQQLPGTAPKLLIEGYYNRPSGVPDRFSGSKSGTSASLTITGLLPEDEGDYYCQSYDGTLSALFGGGTKLTVLG ): 227
